// provenance: ChEMBL document CHEMBL3098125

experiment: Cytotoxicity against human TZM-bl cells assessed as cell viability after 48 hrs by MTT assay; format: cell-based; conditions: TZM-bl cells
Recorded CC50 at 48 h by entry
Please state the figure in µM; there is no need to write the unit.

> print(dat)
                                   compound  units.text  measured.value
1            CC(C)=CCCC1=CCc2ccc(O)c(O)c2C1          µM             138
2  CC(C)=CCC1C(C)=CCc2c1ccc(O)c2O (stereo unspecified)          µM             211
3  COC(=O)C12C=CC(=O)C(O)=C1CC=C(C)C2C/C=C(\C)C=O (stereo unspecified)          µM             627
4  COC(=O)C12C=CC(=O)C(O)=C1CC(CCC=C(C)C)=CC2 (stereo unspecified)          µM             693
5  Cc1nnc(C(=O)NC(C)(C)c2nc(C(=O)NCc3ccc(F)cc3)c(O)c(=O)n2C)o1          µM             856

// CC50 at 48 h lookup, key: COC(=O)C12C=CC(=O)C(O)=C1CC=C(C)C2C/C=C(\C)CO (stereo unspecified) 928

# repeat for COC(=O)C12C=CC(=O)C(O)=C1CC=C(C)C2CC=C(C)C (stereo unspecified) 56.4

// same read-out, input: COC(=O)C12C=CC(=O)C(O)=C1CC(CC/C=C(\C)CO)=CC2 (stereo unspecified) 383

Record: COC(=O)C12C=CC(=O)C(O)=C1CC(CC/C=C(\C)C=O)=CC2 (stereo unspecified) 625

Then this compound: COC(=O)C12C=CC(=O)C(OC(C)=O)=C1CC=C(C)C2CC=C(C)C (stereo unspecified) 677

Then CC(C)=CCC1C(C)=CCc2c(O)ccc(O)c21 (stereo unspecified) ? 140
